# TARGET_SYSTEM: rabbit activated Protein C (rabbit) (UniProt Q28661)
# TEST_DESCRIPTION: direct ELISA, aPC coated, hIgG1
ASSAY_METRIC: pEC50
pEC50 (log units): -log10 of the concentration in mol/L.

A selection of reference data follows.
C7I7 hIgG1 (antibody, V domains shown, also called C717-IgG) VH: EVQLLESGGGLVQPGGSLRLSCAASGFTFGNHWMTWVRQAPGKGLEWVSGVSWNGSRTHYADSVKGRFTISRDNSKNTLYLQMNSLRAEDTAVYYCALTGRSGWMRFPNWFDPWGQGTLVTVTS VL: QSVLTQPPSASGTPGQRVTISCTGSSSNIGAGYDVHWYQQLPGTAPKLLIYGNSNRPSGVPDRFSGSKSGTSASLAISGLRSEDEAAYYCSSYVGSDLVVFGGGTKLTVLG	8.70
C22J13 hIgG1 (antibody, V domains shown) VH: EVQLLESGGGLVQPGGSLRLSCAASGFTFSSNYMSWVRQAPGKGLEWVAVISYDGSNKYYADSVKGRFTISRDNSKNTLYLQMNSLRAEDTAMYYCALTGRSGWMRFPNWFDPWGQGTLVTVTS VL: QSVLTQPPSASGTPGQRVTISCSGSDSNIGSNAVNWYQQLPGTAPKLLIYDNNKRPSGVPDRFSGSKSGTSASLAISGLRSEDEADYYCSSYTSSNTVVFGGGTKLTVLG	9.22
C7A23 hIgG1 (antibody, V domains shown, also called C7A23-IgG) VH: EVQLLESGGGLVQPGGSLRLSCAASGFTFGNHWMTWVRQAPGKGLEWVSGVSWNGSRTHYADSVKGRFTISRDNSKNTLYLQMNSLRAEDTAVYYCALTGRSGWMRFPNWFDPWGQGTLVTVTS VL: QSVLTQPPSASGTPGQRVTISCSGSSSNIGNNYVSWYQQLPGTAPKLLIYRNNQRPSGVPDRFSGSKSGTSASLAISGLRSEDEADYYCQSYDSDLSGPYVLFGGGTKLTVLG	8.15

Then this binder:
Given the entry T46J23-hIgG1 (antibody, V domains shown, also called T46J23-IgG) VH: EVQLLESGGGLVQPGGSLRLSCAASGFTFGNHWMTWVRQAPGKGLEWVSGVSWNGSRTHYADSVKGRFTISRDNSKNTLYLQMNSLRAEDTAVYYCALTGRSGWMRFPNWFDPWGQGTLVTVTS VL: LTQPPSASGTPGQRVTISCTGTSSNIGAGYDVHWYQQLPGTAPKLLIYDNNNRPSGVPDRFSGSKSGTSASLAISGLRSEDEADYYCAAWDDSLNGVVFGGGTKLTVLG , report its measured pEC50.
8.15

This collection of values is drawn from patent US20150307625A1.
